This listing pairs binders with measured MFI.
# ASSAY SYSTEM: DLL3 endogenously expressed on NCI-H82 cells (UniProt Q9NYJ7)
# Sequence (Q9NYJ7 27-618): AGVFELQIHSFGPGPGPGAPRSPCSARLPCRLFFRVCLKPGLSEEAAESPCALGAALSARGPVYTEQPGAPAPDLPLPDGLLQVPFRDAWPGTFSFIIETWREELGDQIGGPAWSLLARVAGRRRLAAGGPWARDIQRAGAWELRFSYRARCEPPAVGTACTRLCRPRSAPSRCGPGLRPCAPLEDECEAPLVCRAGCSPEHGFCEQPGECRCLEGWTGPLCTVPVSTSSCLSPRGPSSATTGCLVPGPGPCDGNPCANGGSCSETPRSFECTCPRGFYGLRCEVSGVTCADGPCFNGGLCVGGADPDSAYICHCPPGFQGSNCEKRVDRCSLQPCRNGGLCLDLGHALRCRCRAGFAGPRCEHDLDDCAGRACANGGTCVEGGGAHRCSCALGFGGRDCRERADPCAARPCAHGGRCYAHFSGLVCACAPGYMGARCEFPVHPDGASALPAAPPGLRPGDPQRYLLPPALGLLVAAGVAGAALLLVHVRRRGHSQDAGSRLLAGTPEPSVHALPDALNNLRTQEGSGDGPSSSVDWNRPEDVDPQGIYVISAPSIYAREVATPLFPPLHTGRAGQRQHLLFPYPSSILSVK
# MEASUREMENT PROTOCOL: FACS on NCI-H82 cells; antibody 0.032 nM

Hab013VL2VH2a-hFc (scFv, part only; not given: scFv linker and human IgG1 Fc, V domains shown, not shown: another chain or arm of the molecule; a dimerising Fc or GST; small tags and cut ends) VL: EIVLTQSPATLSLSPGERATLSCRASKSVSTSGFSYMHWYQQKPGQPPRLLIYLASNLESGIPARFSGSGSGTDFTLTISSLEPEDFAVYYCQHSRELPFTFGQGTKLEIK VH: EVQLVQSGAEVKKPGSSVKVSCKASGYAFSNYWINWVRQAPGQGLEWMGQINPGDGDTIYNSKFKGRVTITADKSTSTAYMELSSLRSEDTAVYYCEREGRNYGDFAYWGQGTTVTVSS: 356
Hab015VL4VH5a-hFc (scFv, part only; not given: VL-VH linker and human IgG1 Fc, V domains shown, not shown: another chain or arm of the molecule; a dimerising Fc or GST; small tags and cut ends) VL: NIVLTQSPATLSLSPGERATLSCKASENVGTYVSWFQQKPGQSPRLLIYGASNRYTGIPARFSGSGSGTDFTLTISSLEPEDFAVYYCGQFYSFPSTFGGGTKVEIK VH: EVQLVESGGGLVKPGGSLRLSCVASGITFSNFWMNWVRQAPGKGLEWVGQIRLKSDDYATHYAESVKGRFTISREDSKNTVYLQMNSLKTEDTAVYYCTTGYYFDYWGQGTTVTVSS: 212
Hab014VL2VH1-hFc (scFv, part only; not given: scFv linker and human IgG1 Fc, V domains shown, not shown: another chain or arm of the molecule; a dimerising Fc or GST; small tags and cut ends) VL: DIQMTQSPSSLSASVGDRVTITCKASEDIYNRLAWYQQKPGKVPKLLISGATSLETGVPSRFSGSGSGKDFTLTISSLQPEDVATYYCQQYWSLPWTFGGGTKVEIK VH: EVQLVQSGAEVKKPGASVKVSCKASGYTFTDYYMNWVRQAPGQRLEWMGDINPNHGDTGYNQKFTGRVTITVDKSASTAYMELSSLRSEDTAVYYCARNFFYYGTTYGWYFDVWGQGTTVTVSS: 217
Hab015VL5VH5a-hFc (scFv, part only; not given: scFv linker and human IgG1 Fc, V domains shown, not shown: another chain or arm of the molecule; a dimerising Fc or GST; small tags and cut ends) VL: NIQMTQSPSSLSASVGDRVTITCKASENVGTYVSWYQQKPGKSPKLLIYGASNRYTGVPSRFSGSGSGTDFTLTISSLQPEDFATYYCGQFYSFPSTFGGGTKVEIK VH: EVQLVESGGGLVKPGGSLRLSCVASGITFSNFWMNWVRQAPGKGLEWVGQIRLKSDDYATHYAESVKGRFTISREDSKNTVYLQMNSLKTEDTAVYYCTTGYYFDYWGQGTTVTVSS: 230
Hab015VL5VH6a-hFc (scFv, part only; not given: scFv linker and human IgG1 Fc, V domains shown, not shown: another chain or arm of the molecule; a dimerising Fc or GST; small tags and cut ends) VL: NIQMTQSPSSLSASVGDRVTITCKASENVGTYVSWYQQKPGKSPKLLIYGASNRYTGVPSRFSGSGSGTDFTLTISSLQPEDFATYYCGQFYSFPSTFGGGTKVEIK VH: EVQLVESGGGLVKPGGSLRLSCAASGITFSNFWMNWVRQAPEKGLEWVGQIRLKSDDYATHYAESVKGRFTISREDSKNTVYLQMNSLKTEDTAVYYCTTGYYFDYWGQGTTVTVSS: 216

Consider now this further binder.
Query string: May I ask what MFI has been recorded for Hab015VL5VH1b-hFc (scFv, part only; not given: VL-VH linker and human IgG1 Fc, V domains shown, not shown: another chain or arm of the molecule; a dimerising Fc or GST; small tags and cut ends) VL: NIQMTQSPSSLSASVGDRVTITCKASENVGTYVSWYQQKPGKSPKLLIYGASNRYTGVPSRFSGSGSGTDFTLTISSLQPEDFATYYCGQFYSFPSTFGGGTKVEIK VH: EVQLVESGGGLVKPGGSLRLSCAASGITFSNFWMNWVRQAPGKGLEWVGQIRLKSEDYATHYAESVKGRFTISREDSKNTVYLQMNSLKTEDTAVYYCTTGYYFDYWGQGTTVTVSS ?
Result string: 212

Numbers sourced from patent EP4786492A1.
